Test system: U87MG cells subcutaneous tumor
assay: Concentration of radioactivity in tumor of labeled compounds (Test Example 4)
Assay type: in vivo, mouse
condition_label: 4 hours later, tail vein, 111In 740 kBq, 64Cu and 90Y 500 kBq
Reported Concentration of radioactivity in tumor values follow for various compounds
State the answer as a number, implicitly in % ID/g.

{"compound": "Cc1cc(OCCCC(=O)NCCNC(=O)C(CS(=O)(=O)O)NC(=O)CCC(NC(=O)CN2CCN(CC(=O)[O-])CCN(CC(=O)[O-])CCN(CC(=O)[O-])CC2)C(=O)NC(CS(=O)(=O)O)C(=O)NCCNC(=O)CCCOc2cc(C)c(S(=O)(=O)NC(CNC(=O)c3ccc(CCc4ccc5c(n4)NCCC5)cc3)C(=O)O)c(C)c2)cc(C)c1S(=O)(=O)NC(CNC(=O)c1ccc(CCc2ccc3c(n2)NCCC3)cc1)C(=O)O.[111In+3] (stereo not shown) [[^111In]-(H9)]", "units_label": "% ID/g", "Concentration of radioactivity in tumor": 9.17}
{"compound": "O=C([O-])CN1CCN(CC(=O)[O-])CCN(CC(=O)NC(CS(=O)(=O)O)C(=O)NC(CS(=O)(=O)O)C(=O)NCCNC(=O)CCCOc2cncc(C(CC(=O)O)n3ccc4cc(OCCc5ccc6c(n5)NCCC6)ccc43)c2)CCN(CC(=O)[O-])CC1.[111In+3] (mixture of isomers) [[^111In]-(I21)]", "units_label": "% ID/g", "Concentration of radioactivity in tumor": 10.60}
{"compound": "Cc1cc(OCCCC(=O)NCCNC(=O)COCCOCCNC(=O)C(CCCCN)NC(=O)CN2CCN(CC(=O)[O-])CCN(CC(=O)[O-])CCN(CC(=O)[O-])CC2)cc(C)c1S(=O)(=O)NC(CNC(=O)c1ccc(CCc2ccc3c(n2)NCCC3)cc1)C(=O)O.[111In+3] (stereo not shown) [[^111In]-(E3)]", "units_label": "% ID/g", "Concentration of radioactivity in tumor": 11.00}

Then this compound:
For U87MG cells subcutaneous tumor, give the measured Concentration of radioactivity in tumor of the entry Cc1cc(OCCCC(=O)NCCNC(=O)[C@H](CS(=O)(=O)O)NC(=O)[C@H](CS(=O)(=O)O)NC(=O)CN2CCN(CC(=O)[O-])CCN(CC(=O)[O-])CCN(CC(=O)[O-])CC2)cc(C)c1S(=O)(=O)N[C@@H](CNC(=O)c1ccc(CCc2ccc3c(n2)NCCC3)s1)C(=O)O.[111In+3] [[^111In]-(X9)]
8.54

----------
tested_on: Integrin αvβ3 (Homo sapiens, UniProt P05106+P06756)
Construct: purchased Chemicon International, Inc
Sequence (P06756 31-889 limits assumed): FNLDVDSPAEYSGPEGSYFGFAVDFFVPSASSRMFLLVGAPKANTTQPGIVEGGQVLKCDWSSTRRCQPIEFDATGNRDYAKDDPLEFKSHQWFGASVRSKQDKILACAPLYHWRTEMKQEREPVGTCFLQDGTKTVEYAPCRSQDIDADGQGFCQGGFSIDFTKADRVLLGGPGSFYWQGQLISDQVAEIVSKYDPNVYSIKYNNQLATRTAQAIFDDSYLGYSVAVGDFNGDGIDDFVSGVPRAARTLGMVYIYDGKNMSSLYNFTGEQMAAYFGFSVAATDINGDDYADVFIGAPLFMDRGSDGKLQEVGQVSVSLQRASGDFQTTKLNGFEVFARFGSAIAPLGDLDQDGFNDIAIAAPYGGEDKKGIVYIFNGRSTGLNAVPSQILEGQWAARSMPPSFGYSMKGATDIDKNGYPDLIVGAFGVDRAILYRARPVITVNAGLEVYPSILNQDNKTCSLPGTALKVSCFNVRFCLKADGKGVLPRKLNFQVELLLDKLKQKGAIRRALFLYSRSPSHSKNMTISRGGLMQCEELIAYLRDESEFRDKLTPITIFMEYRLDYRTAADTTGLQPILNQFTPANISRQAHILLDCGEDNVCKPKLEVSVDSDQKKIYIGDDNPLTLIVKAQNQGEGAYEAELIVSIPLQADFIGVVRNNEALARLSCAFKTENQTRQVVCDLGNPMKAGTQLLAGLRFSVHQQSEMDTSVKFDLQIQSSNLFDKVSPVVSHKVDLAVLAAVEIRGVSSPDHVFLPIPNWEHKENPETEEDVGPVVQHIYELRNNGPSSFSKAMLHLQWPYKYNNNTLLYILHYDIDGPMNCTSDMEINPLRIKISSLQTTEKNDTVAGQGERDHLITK
Sequence (P06756 891-1048 partner limits assumed): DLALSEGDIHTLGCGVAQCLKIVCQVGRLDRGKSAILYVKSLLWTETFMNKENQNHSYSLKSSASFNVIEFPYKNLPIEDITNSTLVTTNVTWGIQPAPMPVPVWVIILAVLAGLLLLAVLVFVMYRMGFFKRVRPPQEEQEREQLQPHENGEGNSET
Sequence (P05106 27-788): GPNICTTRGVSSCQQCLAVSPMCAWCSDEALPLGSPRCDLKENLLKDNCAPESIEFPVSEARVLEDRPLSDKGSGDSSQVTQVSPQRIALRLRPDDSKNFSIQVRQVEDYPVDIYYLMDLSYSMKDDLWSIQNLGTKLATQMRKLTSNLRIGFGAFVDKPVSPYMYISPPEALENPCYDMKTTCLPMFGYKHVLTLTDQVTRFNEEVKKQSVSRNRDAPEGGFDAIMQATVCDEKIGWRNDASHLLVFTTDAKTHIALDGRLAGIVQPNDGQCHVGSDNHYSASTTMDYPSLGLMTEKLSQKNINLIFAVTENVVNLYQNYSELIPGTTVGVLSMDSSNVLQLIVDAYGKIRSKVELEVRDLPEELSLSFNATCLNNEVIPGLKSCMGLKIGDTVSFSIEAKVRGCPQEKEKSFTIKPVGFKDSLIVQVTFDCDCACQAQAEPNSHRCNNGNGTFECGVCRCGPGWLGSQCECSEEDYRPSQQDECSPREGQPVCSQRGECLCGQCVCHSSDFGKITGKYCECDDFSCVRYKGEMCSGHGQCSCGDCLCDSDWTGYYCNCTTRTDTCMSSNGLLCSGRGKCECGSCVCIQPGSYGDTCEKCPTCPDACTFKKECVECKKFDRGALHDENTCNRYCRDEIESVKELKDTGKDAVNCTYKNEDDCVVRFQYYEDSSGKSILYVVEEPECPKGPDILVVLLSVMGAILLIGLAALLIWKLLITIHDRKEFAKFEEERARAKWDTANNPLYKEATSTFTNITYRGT
assay: Integrin αvβ3 binding affinity test
condition_label: inhibition of biotinylated vitronectin binding to immobilized αvβ3; read-out: IC50 value αv β3
pIC50: −log10 of the molar value.
parameter: pIC50

{"molecule": "Cc1cc(OCCCC(=O)NCCNC(=O)[C@H](CS(=O)(=O)O)NC(=O)CN2CCN(CC(=O)O)CCN(CC(=O)O)CCN(CC(=O)O)CC2)cc(C)c1S(=O)(=O)N[C@H](CNC(=O)CCCCc1ccc2c(n1)NCCC2)C(=O)O", "tested_on": "Integrin αvβ3 (Homo sapiens, UniProt P05106+P06756)", "parameter": "pIC50", "reported_measurement": "> 9.00"}
{"molecule": "Cc1cc(OCCCC(=O)NCCNC(=O)[C@H](CS(=O)(=O)O)NC(=O)[C@H](CS(=O)(=O)O)NC(=S)Nc2ccc(C[C@@H](CN(CC(=O)O)CC(C)N(CC(=O)O)CC(=O)O)N(CC(=O)O)CC(=O)O)cc2)cc(C)c1S(=O)(=O)N[C@@H](CNC(=O)c1ccc(CCc2ccc3c(n2)NCCC3)cc1)C(=O)O (stereo partly shown)", "tested_on": "Integrin αvβ3 (Homo sapiens, UniProt P05106+P06756)", "parameter": "pIC50", "reported_measurement": "> 9.00"}
{"molecule": "O=C(O)CN1CCN(CC(=O)O)CCN(CC(=O)N[C@@H](CS(=O)(=O)O)C(=O)N[C@@H](CS(=O)(=O)O)C(=O)NCCNC(=O)CCCOc2ccc(S(=O)(=O)N[C@@H](CNC(=O)c3ccc(CCc4ccc5c(n4)NCCC5)cc3)C(=O)O)cc2)CCN(CC(=O)O)CC1", "tested_on": "Integrin αvβ3 (Homo sapiens, UniProt P05106+P06756)", "parameter": "pIC50", "reported_measurement": "> 9.00"}

Then this molecule:
For Integrin αvβ3 (Homo sapiens, UniProt P05106+P06756), give the measured pIC50 of the entry Cc1cc(OCCCC(=O)NCCNC(=O)[C@H](CS(=O)(=O)O)NC(=O)CCC(C(=O)O)N2CCCN3CCN(CCCN(CC(=O)O)CC3)CC2)cc(C)c1S(=O)(=O)N[C@@H](CNC(=O)CCCCc1ccc2c(n1)NCCC2)C(=O)O (single isomer, unassigned) [Ab9-a]
> 9.00

----------
System: U87MG cells subcutaneous tumor
assay: Concentration of radioactivity in tumor of labeled compounds (Test Example 4)
Assay type: in vivo, mouse
condition_label: 4 hours later, tail vein, 111In 740 kBq, 64Cu and 90Y 500 kBq
Reported Concentration of radioactivity in tumor values follow for various compounds
State the answer as a number, implicitly in % ID/g.

{"compound": "Cc1cc(OCCCC(=O)NCCNC(=O)COCCOCCNC(=O)CN2CCN(CC(=O)[O-])CCN(CC(=O)[O-])CCN(CC(=O)[O-])CC2)cc(C)c1S(=O)(=O)N[C@@H](CNC(=O)c1ccc(CCc2ccc3c(n2)NCCC3)cc1)C(=O)O.[111In+3] [[^111In]-(D3)]", "Concentration of radioactivity in tumor [% ID/g]": 10.50}
{"compound": "Cc1cc(OCCCC(=O)NCCNC(=O)C(CS(=O)(=O)O)NC(=O)C(CS(=O)(=O)O)NC(=O)CN2CCN(CC(=O)[O-])CCN(CC(=O)[O-])CCN(CC(=O)[O-])CC2)cc(C)c1S(=O)(=O)NC(CNC(=O)CCCCc1ccc2c(n1)NCCC2)C(=O)O.[111In+3] (stereo not shown) [[^111In]-(O10)]", "Concentration of radioactivity in tumor [% ID/g]": 12.80}
{"compound": "Cc1cc(OCCCC(=O)NCCNC(=O)[C@H](CS(=O)(=O)O)NC(=O)CN2CCN(CC(=O)[O-])CCN(CC(=O)[O-])CCN(CC(=O)[O-])CC2)cc(C)c1S(=O)(=O)N[C@@H](CNC(=O)c1ccc(CCc2ccc3c(n2)NCCC3)cc1)C(=O)O.[111In+3] [[^111In]-(B2)]", "Concentration of radioactivity in tumor [% ID/g]": 8.58}
{"compound": "Cc1cc(OCCCC(=O)NCCNC(=O)[C@H](CS(=O)(=O)O)NC(=O)CN2CCN(CC(=O)[O-])CCN(CC(=O)[O-])CCN(CC(=O)[O-])CC2)cc(C)c1S(=O)(=O)N[C@@H](CNC(=O)CCCCc1ccc2c(n1)NCCC2)C(=O)O.[90Y+3] [[^90Y]-(P2)]", "Concentration of radioactivity in tumor [% ID/g]": 12.52}
{"compound": "Cc1cc(OCCCC(=O)NCCNC(=O)[C@H](CS(=O)(=O)O)NC(=O)[C@H](CS(=O)(=O)O)NC(=O)CN2CCN(CC(=O)[O-])CCN(CC(=O)[O-])CCN(CC(=O)[O-])CC2)cc(C)c1S(=O)(=O)N[C@@H](CNC(=O)c1ccc(CCc2cccc(N)n2)cc1)C(=O)O.[111In+3] [[^111In]-(N3)]", "Concentration of radioactivity in tumor [% ID/g]": 9.75}

Fill in Concentration of radioactivity in tumor for record Cc1cc(OCCCC(=O)NCCNC(=O)C(CS(=O)(=O)O)NC(=O)C(CS(=O)(=O)O)NC(=O)CN2CCN(CC(=O)[O-])CCN(CC(=O)[O-])CCN(CC(=O)[O-])CC2)cc(C)c1S(=O)(=O)NC(CNC(=O)c1ccc(CCc2ccc3c(n2)NCCC3)cc1)C(=O)O.[111In+3] (stereo not shown) [[^111In]-(A8)]
9.48

Fill in Concentration of radioactivity in tumor for record Cc1cc(OCCCC(=O)NCCNC(=O)COCCOCCNC(=O)[C@H](CS(=O)(=O)O)NC(=O)CN2CCN(CC(=O)[O-])CCN(CC(=O)[O-])CCN(CC(=O)[O-])CC2)cc(C)c1S(=O)(=O)N[C@@H](CNC(=O)c1ccc(CCc2ccc3c(n2)NCCC3)cc1)C(=O)O.[111In+3] [[^111In]-(G3)]
10.50

----------
tested_on: Integrin αvβ3 (Homo sapiens, UniProt P05106+P06756)
Construct: purchased Chemicon International, Inc
assay: Integrin αvβ3 binding affinity test
condition_label: inhibition of biotinylated vitronectin binding to immobilized αvβ3; read-out: IC50 value αv β3
pIC50: −log10 of the molar value.
parameter: pIC50

{"molecule": "Cc1cc(OCCCC(=O)NCCNC(=O)COCCOCCNC(=O)CN2CCN(CC(=O)O)CCN(CC(=O)O)CCN(CC(=O)O)CC2)cc(C)c1S(=O)(=O)N[C@@H](CNC(=O)c1ccc(CCc2ccc3c(n2)NCCC3)cc1)C(=O)O", "reported_measurement": "> 9.00"}
{"molecule": "Cc1cc(OCCCC(=O)NCCNC(=O)[C@H](CS(=O)(=O)O)NC(=O)CN2CCN(CC(=O)O)CCN(CC(=O)O)CCN(CC(=O)O)CC2)cc(C)c1S(=O)(=O)N[C@@H](CNC(=O)CCCCc1ccc2c(n1)NCCC2)C(=O)O [Compound P2]", "reported_measurement": "> 9.00"}
{"molecule": "O=C(O)CC(c1cncc(OCCCC(=O)NCCNC(=O)[C@H](CS(=O)(=O)O)NC(=O)[C@H](CS(=O)(=O)O)NC(=O)CN2CCN(CC(=O)O)CCN(CC(=O)O)CCN(CC(=O)O)CC2)c1)n1ccc2cc(OCCc3ccc4c(n3)NCCC4)ccc21 (stereo partly shown)", "reported_measurement": "> 9.00"}

Fill in pIC50 for record Cc1cc(OCCCC(=O)NCCNC(=O)[C@H](CS(=O)(=O)O)NC(=O)[C@H](CS(=O)(=O)O)NC(=O)CN2CCN(CC(=O)O)CCN(CC(=O)O)CCN(CC(=O)O)CC2)cc(C)c1S(=O)(=O)N[C@@H](CNC(=O)c1ccc(CCc2ccc3c(n2)NCCC3)cc1)C(=O)O
> 9.00
